These entries and their values trace back to PubChem BioAssay AID1159580.

# experiment description: chemical genetic growth profiling, strain panel (AID 1159580);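 further: tested at 20 µM; growth read once vehicle control cultures reached saturation at 30 °C; 1 = growth at the plate median or of vehicle wells; lower values mean less growth of the strain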
# measurement context: S. cerevisiae deletion strains, growth OD, locus YNL006W, strain LST8
The campaign covered roughly 5,500 compounds. About 2,000 (36%) were called active. Inconclusive results (about 18%) are left out. No stated cut-off is given here; in the data, active means normalized growth mostly below about 0.91 (no sharp cut-off); inconclusive means no clear call, values can overlap the other calls; inactive means mostly above about 0.92. The list shows a part of the results.
Outcome codes: true (1) = active, false (0) = inactive

CCC(C)c1ccccc1NC(=O)c1cc2cccc([N+](=O)[O-])c2[nH]1 (configuration not stated) :: false (0)
O=C(C=C(O)c1ccc(Br)cc1)C(=O)Nc1ccccc1 :: true (1)
O=C(Nc1c(Br)c(C2CC2)nn1-c1ccccc1)C(Cl)(Cl)Cl :: false (0)
CC(C)(C)C1=NN(c2nc3ccc(Cl)cc3s2)C(=O)C1 :: true (1)
CC1=CC(=O)C(CCOCCC2=CC(=O)C(C)=CC2=O)=CC1=O :: false (0)
N#C/C(=C\c1ccccc1Sc1ccc(Cl)cc1)S(=O)(=O)c1ccccn1 :: false (0)
Cc1c(Cl)cccc1NC(=S)N1CCCN(c2nc3ccc(Cl)cc3s2)CC1 :: false (0)
